System: SF-268
Assay: NCI tumour cell line growth inhibition, 48 h
The source made the active and inactive calls. Rule as the data show it: active = GI50 up to about 1.1 µM and inactive = higher.
Hello, when you answer, please use one of the following outcomes: 1.0 for active, 0.0 for inactive

What call does the record list for Cc1nc2c(n1-c1ccc(Br)cc1)C(=O)c1ccccc1C2=O ?
0.0

Again, but for CC(CCC(=O)O)c1ccc(Br)cc1 (stereo not drawn)
0.0

Again, but for CC(=O)OC(CN1CCN(c2ccccn2)CC1)Cn1sc2nc(C)cc(C)c2c1=O (stereo not drawn)
0.0

Again, but for O=C1C(=O)N(C2C3CC4CC(C3)CC2C4)C(=O)C(=O)C1c1nc2ccccc2o1 (stereo not drawn)
0.0

Again, but for C/C(=N\NC(N)=O)c1sc(-c2nc(C)c(/C(C)=N/NC(N)=O)s2)nc1C
0.0

Again, but for CC[C@H](NC(=O)OC(C)(C)C)C(=O)NCP(=O)(OCc1ccc([N+](=O)[O-])cc1)OCc1ccc([N+](=O)[O-])cc1
0.0
